I'd appreciate it if you could supply viability, T/C values for the items below.
Test system: 876862-298-R-J1-PDC complex spheroids, viability % test/control
Test: Anticancer human tumor 876862-298-R-J1-PDC patient-derived endometrial carcinoma cell line growth inhibition [CLK]
Conditions: second compound 1 µM; first compound 0.0316 µM; hits give low values
Please respond with the number in % and leave the unit unwritten.

Reported viability, T/C for Cn1ncnc1[C@H]1c2n[nH]c(=O)c3cc(F)cc(c23)N[C@@H]1c1ccc(F)cc1 + CN1CCN(c2cc(C(=O)Nc3cc4cc(-c5cnn(C)c5)ccc4cn3)ccn2)CC1 : what is it?
0.52

Reported viability, T/C for CC(Nc1ccc2c(c1)OCCn1cc(N3C(=O)OCC3C(F)F)nc1-2)C(N)=O (stereo not given) + CNC(=O)c1ccc(Nc2nc(OC3CCCC3)c3c(-c4ccc5nc(C)oc5c4)c[nH]c3n2)c(OC)c1 : what is it?
31.6

Reported viability, T/C for O=C(c1cc(Cc2n[nH]c(=O)c3ccccc23)ccc1F)N1CCN(C(=O)C2CC2)CC1 + CN1CCN(c2cc(C(=O)Nc3cc4cc(-c5cnn(C)c5)ccc4cn3)ccn2)CC1 : what is it?
0.78

Reported viability, T/C for O=C(c1cc(Cc2n[nH]c(=O)c3ccccc23)ccc1F)N1CCN(C(=O)C2CC2)CC1 + CNC(=O)c1ccc(Nc2nc(OC3CCCC3)c3c(-c4ccc5nc(C)oc5c4)c[nH]c3n2)c(OC)c1 : what is it?
39.1

Reported viability, T/C for COc1ccc([C@@H](O)c2cc(-c3ncnc4cc(N5CCOCC5)ccc34)c(F)cc2Cl)nn1 + CN1CCN(c2cc(C(=O)Nc3cc4cc(-c5cnn(C)c5)ccc4cn3)ccn2)CC1 : what is it?
0.64

====

I'd appreciate it if you could supply viability, T/C values for the items below.
Test system: 876862-298-R-J1-PDC complex spheroids, viability % test/control
Assay: Anticancer human tumor 876862-298-R-J1-PDC cell line growth inhibition [CLK];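 also: spheroids exposed to drugs for 7 days before readout; 100% = DMSO vehicle control wells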
Conditions: second compound 0.1 µM; first compound 0.01 µM; hits give low values
Please respond with the number in % and leave the unit unwritten.

Reported viability, T/C for CCN1CCN(Cc2ccc(Nc3ncc(F)c(-c4cc(F)c5nc(C)n(C(C)C)c5c4)n3)nc2)CC1 + CNC(=O)c1ccc(Nc2nc(OC3CCCC3)c3c(-c4ccc5nc(C)oc5c4)c[nH]c3n2)c(OC)c1 : what is it?
51.9

Reported viability, T/C for Cn1ncnc1[C@H]1c2n[nH]c(=O)c3cc(F)cc(c23)N[C@@H]1c1ccc(F)cc1 + CNC(=O)c1ccc(Nc2nc(OC3CCCC3)c3c(-c4ccc5nc(C)oc5c4)c[nH]c3n2)c(OC)c1 : what is it?
46.5

Reported viability, T/C for COc1c(OCCCN2CCOCC2)ccc2c3n(c(=NC(=O)c4cnc(N)nc4)nc12)CCN3 + CN1CCN(c2cc(C(=O)Nc3cc4cc(-c5cnn(C)c5)ccc4cn3)ccn2)CC1 : what is it?
40

Reported viability, T/C for Cn1ncnc1[C@H]1c2n[nH]c(=O)c3cc(F)cc(c23)N[C@@H]1c1ccc(F)cc1 + CN1CCN(c2cc(C(=O)Nc3cc4cc(-c5cnn(C)c5)ccc4cn3)ccn2)CC1 : what is it?
48

Reported viability, T/C for CCc1c2c(nc3ccc(O)cc13)-c1cc3c(c(=O)n1C2)COC(=O)[C@]3(O)CC + CNC(=O)c1ccc(Nc2nc(OC3CCCC3)c3c(-c4ccc5nc(C)oc5c4)c[nH]c3n2)c(OC)c1 : what is it?
7.94

Reported viability, T/C for CCc1c2c(nc3ccc(O)cc13)-c1cc3c(c(=O)n1C2)COC(=O)[C@]3(O)CC + CN1CCN(c2cc(C(=O)Nc3cc4cc(-c5cnn(C)c5)ccc4cn3)ccn2)CC1 : what is it?
7.89

Reported viability, T/C for CCN1CCN(Cc2ccc(Nc3ncc(F)c(-c4cc(F)c5nc(C)n(C(C)C)c5c4)n3)nc2)CC1 + CN1CCN(c2cc(C(=O)Nc3cc4cc(-c5cnn(C)c5)ccc4cn3)ccn2)CC1 : what is it?
45

Reported viability, T/C for COc1c(OCCCN2CCOCC2)ccc2c3n(c(=NC(=O)c4cnc(N)nc4)nc12)CCN3 + CNC(=O)c1ccc(Nc2nc(OC3CCCC3)c3c(-c4ccc5nc(C)oc5c4)c[nH]c3n2)c(OC)c1 : what is it?
35.1

====

I'd appreciate it if you could supply viability, T/C values for the items below.
Test system: 876862-298-R-J1-PDC complex spheroids, viability % test/control
Assay: Anticancer human tumor 876862-298-R-J1-PDC cell line growth inhibition [CLK];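 also: spheroids exposed to drugs for 7 days before readout; 100% = DMSO vehicle control wells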
Conditions: second compound 1 µM; first compound 0.3 µM; hits give low values
Please respond with the number in % and leave the unit unwritten.

Reported viability, T/C for CC(C)CC(NC(=O)C(Cc1ccccc1)NC(=O)c1cnccn1)B(O)O (stereo not drawn) + CN1CCN(c2cc(C(=O)Nc3cc4cc(-c5cnn(C)c5)ccc4cn3)ccn2)CC1 : what is it?
0.57

Reported viability, T/C for C=CC(=O)Nc1cc(Nc2nccc(-c3cn(C)c4ccccc34)n2)c(OC)cc1N(C)CCN(C)C + CN1CCN(c2cc(C(=O)Nc3cc4cc(-c5cnn(C)c5)ccc4cn3)ccn2)CC1 : what is it?
2.34

Reported viability, T/C for CC(C)CC(NC(=O)C(Cc1ccccc1)NC(=O)c1cnccn1)B(O)O (stereo not drawn) + CNC(=O)c1ccc(Nc2nc(OC3CCCC3)c3c(-c4ccc5nc(C)oc5c4)c[nH]c3n2)c(OC)c1 : what is it?
0.22

====

System: 876862-298-R-J1-PDC complex spheroids, viability % test/control
Assay: Anticancer human tumor 876862-298-R-J1-PDC cell line growth inhibition [CLK];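 also: spheroids exposed to drugs for 7 days before readout; 100% = DMSO vehicle control wells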
Settings: second compound 3.16 µM; first compound 0.003 µM; hits give low values
readout.name: viability, T/C (%)
Please respond with the number in % and leave the unit unwritten.

Reported viability, T/C for C=CC(=O)Nc1cc(Nc2nccc(-c3cn(C)c4ccccc34)n2)c(OC)cc1N(C)CCN(C)C + CN1CCN(c2cc(C(=O)Nc3cc4cc(-c5cnn(C)c5)ccc4cn3)ccn2)CC1 : what is it?
1.18

Reported viability, T/C for CC(C)CC(NC(=O)C(Cc1ccccc1)NC(=O)c1cnccn1)B(O)O (centres undefined) + CNC(=O)c1ccc(Nc2nc(OC3CCCC3)c3c(-c4ccc5nc(C)oc5c4)c[nH]c3n2)c(OC)c1 : what is it?
3.22

Reported viability, T/C for C=CC(=O)Nc1cc(Nc2nccc(-c3cn(C)c4ccccc34)n2)c(OC)cc1N(C)CCN(C)C + CNC(=O)c1ccc(Nc2nc(OC3CCCC3)c3c(-c4ccc5nc(C)oc5c4)c[nH]c3n2)c(OC)c1 : what is it?
27.6

Reported viability, T/C for CC(C)CC(NC(=O)C(Cc1ccccc1)NC(=O)c1cnccn1)B(O)O (centres undefined) + CN1CCN(c2cc(C(=O)Nc3cc4cc(-c5cnn(C)c5)ccc4cn3)ccn2)CC1 : what is it?
0.5

====

I'd appreciate it if you could supply viability, T/C values for the items below.
System: 876862-298-R-J1-PDC complex spheroids, viability % test/control
Experiment: Anticancer human tumor 876862-298-R-J1-PDC cell line growth inhibition [CLK];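 also: spheroids exposed to drugs for 7 days before readout; 100% = DMSO vehicle control wells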
Settings: second compound 3.16 µM; first compound 0.0949 µM; hits give low values
Please respond with the number in % and leave the unit unwritten.

Reported viability, T/C for NC(=O)C(=Cn1cnc(-c2cc(C(F)(F)F)cc(C(F)(F)F)c2)n1)c1cncnc1 + CNC(=O)c1ccc(Nc2nc(OC3CCCC3)c3c(-c4ccc5nc(C)oc5c4)c[nH]c3n2)c(OC)c1 : what is it?
6.99

Reported viability, T/C for C=CC(=O)Nc1cc(Nc2nccc(-c3cn(C)c4ccccc34)n2)c(OC)cc1N(C)CCN(C)C + CNC(=O)c1ccc(Nc2nc(OC3CCCC3)c3c(-c4ccc5nc(C)oc5c4)c[nH]c3n2)c(OC)c1 : what is it?
20

Reported viability, T/C for CC(C)CC(NC(=O)C(Cc1ccccc1)NC(=O)c1cnccn1)B(O)O (stereo unspecified) + CNC(=O)c1ccc(Nc2nc(OC3CCCC3)c3c(-c4ccc5nc(C)oc5c4)c[nH]c3n2)c(OC)c1 : what is it?
1.98

Reported viability, T/C for CC(C)CC(NC(=O)C(Cc1ccccc1)NC(=O)c1cnccn1)B(O)O (stereo unspecified) + CN1CCN(c2cc(C(=O)Nc3cc4cc(-c5cnn(C)c5)ccc4cn3)ccn2)CC1 : what is it?
0.69

Reported viability, T/C for C=CC(=O)Nc1cc(Nc2nccc(-c3cn(C)c4ccccc34)n2)c(OC)cc1N(C)CCN(C)C + CN1CCN(c2cc(C(=O)Nc3cc4cc(-c5cnn(C)c5)ccc4cn3)ccn2)CC1 : what is it?
1.3

Reported viability, T/C for NC(=O)C(=Cn1cnc(-c2cc(C(F)(F)F)cc(C(F)(F)F)c2)n1)c1cncnc1 + CN1CCN(c2cc(C(=O)Nc3cc4cc(-c5cnn(C)c5)ccc4cn3)ccn2)CC1 : what is it?
0.93
